property_name: melting point

Use these answered entries as a reference point.
NC(=O)Cc1ccc(CCCOCCCCCCBr)cc1; 110 to 113 °C
N[C@H](Cc1cccc(C(=O)c2ccccc2)c1)C(=O)O; 230 to 231 °C
Cc1ccc(-c2cc3ccc4ccccc4c3o2)cc1; 97 to 100 °C
CC(=O)NCCCn1cc(-c2cc3nccnc3[nH]2)c2ccccc21; 260 °C
Cc1cc(C(=O)O)cc(C)c1C(O)c1cc(-n2ccnc2)ccc1Cl (stereo not given); 317 to 320 °C

Quickly give me recorded melting point for O=C(O)c1cc(COC2CCCCO2)ccc1COC1CCCCO1 (stereo not given) 107 to 108 °C

Quickly give me recorded melting point for NS(=O)(=O)c1cc(C(=O)OCC(=O)N2CCC(CO[N+](=O)[O-])CC2)c(NCc2ccco2)cc1Cl 115 to 117 °C

Quickly give me recorded melting point for COC(=O)c1ccc(C(=O)N(C)C)cc1 107 °C

Quickly give me recorded melting point for COc1ccc(-c2ccc3nc(NC(=O)c4ccc(C(C)(C)C)cc4)cn3c2)cn1 245 to 247 °C

Quickly give me recorded melting point for CCN(CC)C(=O)c1cnn(C)c1C(=O)Nc1ccn2nc(-c3ccccc3)nc2c1 177 to 179 °C

====

Examples of molecules with documented melting point follow.

Use these answered entries as a reference point.
CCOC(=O)Cc1ccc(C(=O)c2ccc(C#N)cc2)n1C; 117 to 120 °C
CSc1nnc(-c2ccccc2CS(N)(=O)=O)o1; 138 to 140 °C
CCOC(=O)C(=Cc1ccc(N(C)C)cc1[N+](=O)[O-])C(=O)OCC; 101 to 102 °C
CCCCCc1cc(O)c2c(c1)OC(C)(C)[C@H]1CC=C(C(=O)NCC(O)CNC(=O)c3ccc4c(c3)C(=O)OC43c4ccc(O)cc4Oc4cc(O)ccc43)C[C@H]21 (stereo not given in full); > 330 °C
CCOc1c(NCc2ccc(Br)cc2CC)c(=O)c1=O; 217 to 224 °C

Quickly give me recorded melting point for CN(C)c1nc2c(c(=O)[nH]1)CC(S(=O)(=O)c1ccccc1)CC2 (stereo not given) 249 °C

Quickly give me recorded melting point for O=C1c2ccccc2OC1Br (stereo not given) 60 °C

Quickly give me recorded melting point for CC(C(N)=O)c1ccc2c(c1)C(=O)Cc1ccccc1O2 (stereo not given) 154 to 155 °C

Quickly give me recorded melting point for CC(=O)Nc1ccc(F)cc1SCC#N 97 to 100 °C

Quickly give me recorded melting point for CC(=O)Nc1c(C#N)cnn1-c1c(Cl)cc(C(F)(F)F)c(Cl)c1Cl 177 to 178 °C

====

Examples of molecules with documented melting point follow.

COC(=O)c1cc2cc3c(cc2[nH]1)OCC(=O)N3; 188 to 196 °C
CCOC(=O)c1cnc2cn[nH]c2c1Nc1cccs1; 188 to 190 °C
Cc1c(I)ccc2c1C(=O)NS2(=O)=O; 257 to 258 °C
CCOC(=O)c1c(OC(C)C)c(Br)c(Br)n1Cc1ccccc1; 46 to 48 °C
CC(=O)Nc1cccc(-c2nc3ncccc3o2)c1; 202 °C

Quickly give me recorded melting point for Cc1cc(N2CCN(CCc3ccccc3)C2=O)sc1C(=O)NCc1cccnc1 95 to 97 °C

Quickly give me recorded melting point for O=C1CC2(CCc3cc4ccccc4n3C2)C(=O)N1 (stereo not given) 208 to 210 °C

Quickly give me recorded melting point for CCn1ccc2nc(N3CCN(Cc4ccccc4)CC3)ncc2c1=O 116 to 118 °C

Quickly give me recorded melting point for CN(c1cc(OCC(N)=O)cc2cc(C3=NCC(CN4CCS(=O)CC4)S3)[nH]c12)S(=O)(=O)c1ccccn1 (stereo not given) 160 to 161 °C

Quickly give me recorded melting point for O=C1c2ccccc2C(=O)N1c1c(F)cc(Cl)c2c1CCCO2 198 to 200 °C

====

Examples of compounds with documented melting point follow.

CCOc1ccccc1OCC1(O)CCN(Cc2ccccc2)C1 (centres undefined); 56.5 to 59 °C
Cn1cc(-c2cccc(N3Cc4cc(C(C)(C)C)ccc4C3=O)c2CO)cc(Nc2ccccn2)c1=O; 138 to 139 °C
CC(=O)ONC(=N)c1ccc(NC(=O)CCCC(=O)Nc2ccc(C(=N)NOC(C)=O)cc2)cc1; 225 to 228 °C

Quickly give me recorded melting point for CCOC(=O)C(=O)Nc1ccc(C(=O)O)cc1NC(=O)C(=O)OCC 251 °C

====

Examples of compounds with documented melting point follow.

Use these answered entries as a reference point.
Cc1cc(OCC(=O)O)c2c(c1C)-c1nc(SCCC(c3ccccc3)c3ccccc3)sc1C2; 142 to 144 °C
CC(C)(C)NC(=O)c1nn(-c2ccc(F)cc2F)c2c1[C@@H]1CC[C@@]2(C)C1(C)C; 161 to 163 °C
O=C(NCc1ccccc1)Nc1ccc(N2CC(c3ccccc3)CC2=O)cn1 (stereo not given); 172 to 173 °C
COc1cc(OC)nc(OC(C(=O)O)C(C)(C)CO)n1 (stereo not given); 104 to 110 °C
CCN1C=C2C=C(S)N=CN2N1; 251 to 254 °C
CCOC(=O)c1c(C)nc2cc(OC)c(OC)cc2c1-c1ccc(OC)c(OC)c1; 147 to 148 °C
O=C1NCCN1Cc1ccc(Cl)c(Cl)c1; 129 to 130 °C
COC(=O)c1ccc(NC(=O)c2sc3ccc(OC)cc3c2SC(C)C)cc1; 158 °C
O=Cc1ccc2cccnc2c1; 56 °C
O=C(CNc1cccc(F)c1)Nc1c(Cl)ccc2nc(N3CC[C@@H](O)C3)ccc12; 218 to 220 °C

Quickly give me recorded melting point for Cc1nc(C[C@H]2OC[C@H](c3ccc(F)cc3)CO2)nc(C(=O)NCC(=O)O)c1O 209 °C

Quickly give me recorded melting point for CN(Cc1ccc(NC(=O)C2=Cc3cc(-c4ccc5c(c4)OCCO5)ccc3S(=O)(=O)CC2)cc1)C1CCOCC1 248 to 251 °C

Quickly give me recorded melting point for O=C(NC(Cc1c[nH]c2ccccc12)C(=O)O)c1ccccc1Cl (racemic) 56 to 70 °C

Quickly give me recorded melting point for CC(=O)Nc1nc(C)c(S(=O)(=O)NN2CCN(C)CC2)s1 245 °C

Quickly give me recorded melting point for CC(C)(C)OC(=O)NCCNC(=O)c1cc(Br)ccn1 134 °C

====

Examples of molecules with documented melting point follow.

Use these answered entries as a reference point.
COc1cc2c(c(Cl)c1Cl)C(=O)C(C)(c1ccc(Cl)cc1)C2 (stereo not given); 176 to 178 °C
Nc1ccc2cccc(Oc3cc(-c4ccc(C(F)(F)F)cc4)ccn3)c2n1; 196 to 200 °C

Quickly give me recorded melting point for CCCNP(=O)(OC)N1CC(NC(=O)OCc2ccccc2)C1=O (stereo not given) 121 to 123 °C

Quickly give me recorded melting point for CC(N1CCN(c2ncn(Cc3ccc(C(C)(C)C)cc3)n2)CC1)C(O)(Cn1cncn1)c1ccc(F)cc1F (stereo not given) 84 to 86 °C

====

Examples of compounds with documented melting point follow.

O=c1ccn(-c2cc3[nH]c(=O)c(=O)[nH]c3cc2[N+](=O)[O-])cc1; > 300 °C
CCOC(=O)c1c2n(c3cc(Br)c(F)cc3c1=O)C(C)CS2 (centres undefined); 211 °C
CNS(=O)(=O)c1ccc(Nc2cc(N3CCCCC3)cc(-c3ccc(F)cc3)n2)cc1; 191 to 192 °C
CCCCc1ncc(C(=O)OCC)c(N(C)Cc2ccc(-c3ccccc3-c3nnn[nH]3)cc2)n1; 159 to 161 °C
Cn1c2ccccc2c(=O)c2c(-c3cccc(O)c3)c(Cl)cc(Cl)c21; 220 to 222 °C
O=C1Nc2ccc(Cl)cc2C(OCc2ccccn2)(C(F)(F)F)CN1C1CC1 (centres undefined); 170 to 172 °C
O=C(Nc1ccccn1)c1c(O)ccc2cc(-c3cccc(O)c3)ccc12; 140 °C
O=C(O)C1Oc2cc(Cl)c(S(=O)(=O)c3cc(Cl)cc(Cl)c3)cc2O1 (centres undefined); 166 to 169 °C

Quickly give me recorded melting point for CCCCc1ncc(CC(Cc2ccccc2)C(=O)O)n1Cc1ccccc1Cl (centres undefined) 118 to 120 °C

Quickly give me recorded melting point for Cc1ccc(N=c2ccn3ccccc3c2)cc1C 185 to 187 °C

Quickly give me recorded melting point for O=C(O)c1cn(Cc2ccccc2)c2nc(N3CCNCC3)ncc2c1=O 250 to 253 °C

Quickly give me recorded melting point for COc1ccc2c(c1)c(CC(=O)O)c(C)n2-c1ncnc2cc(Cl)ccc12 202 to 204 °C

Quickly give me recorded melting point for Cn1cc(C(=O)CCn2ccnc2)c2ccccc21 121 to 123 °C

====

property_name: melting point

CC(C)(C)c1cc(SCCC(=O)NN)cc(C(C)(C)C)c1O; 107 to 110 °C
CN(CCOc1ccc(C=CC=O)cc1F)c1ccccn1; 93 to 94 °C
CC1CCCC(C)N1Cc1ccc2cc(NC(=O)C3(Cl)C=CC(c4ccccc4Cl)=CC3)ccc2n1 (stereo not given); 162 to 164 °C
O=C(O)C(Cl)(Cl)Cc1ccccc1; 173 to 176 °C
Cc1nnc(-c2ccc3occ(C#N)c3c2)o1; 188 to 189 °C
CCNC(=O)N1CC(Oc2cccc(C(F)(F)F)c2)C1; 125 to 126 °C
CCCCCCCCC(C)OC(=O)NC(C)(C=O)CCc1c[nH]c2ccccc12 (stereo not given); 178 to 179 °C
O=C(O)c1ccc(OC2=C3N=C4CCCCC4=C3C(Cc3ccc(Cl)cc3)C=C2)o1 (stereo not given); 162 to 164 °C
O=C(CN1C(=O)C2(COc3cc4c(cc32)CCO4)c2c(-c3cncnc3)cccc21)Nc1ccccc1F (stereo not given); 229 to 230 °C
COc1c(C)c2c(c(OS(=O)(=O)c3ccc(C)cc3)c1CC1=C(C)C(=O)CC1)C(=O)OC2; 65.4 to 66.8 °C

Quickly give me recorded melting point for Cc1[nH]c(C#N)c(C)c1-c1nc2ccc(Oc3ccccc3)cc2[nH]1 278 to 280 °C

Quickly give me recorded melting point for O=C(CCCCCBr)N1Cc2ccccc2C1 88 °C

Quickly give me recorded melting point for COc1ccc(CCNC(=O)[C@@H](N)C(C)C)cc1OC 52 to 54 °C

Quickly give me recorded melting point for C=CS(=O)(=O)NC(=O)Nc1nc(C)cc(C)n1 131 to 133 °C

Quickly give me recorded melting point for Cn1ccnc1Sc1ccc(Nc2c(C#N)cnc3cc(/C=C/CN4CCCC4)ccc23)cc1Cl 182 to 190 °C

Quickly give me recorded melting point for CC1CCc2ccc(NC(=O)C(F)(F)F)c3c(=O)c(C(=O)O)cn1c23 (stereo not given) 301 to 303 °C

Quickly give me recorded melting point for CCC([O-])=C(C(=O)OCc1ccc([N+](=O)[O-])cc1)N1C(=O)CC1[N+](CC)(CC)CC (stereo not given) 110 to 112 °C

Quickly give me recorded melting point for CCOC(=O)C1=CC(C(=O)c2cc(Br)ccc2O)=CN2CCc3c([nH]c4ccc(OC)cc34)C12C(=O)OCC (stereo not given) 225 °C

Quickly give me recorded melting point for CC(=O)Oc1ccc2cc(NCCCCNC(=O)OC(C)(C)C)c(=O)oc2c1 120 °C

Quickly give me recorded melting point for CCOc1nn(-c2ccc(C(F)(F)F)cn2)cc1CCCOc1nn(C)cc1CC(=O)O 115 to 116 °C
